Tested on: HCC1569;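 note: TDF is a line of transformed human dermal fibroblasts of mesenchymal origin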
experimental.details: H1.0 immunofluorescence intensity relative to DMSO (% of DMSO); higher = stronger H1.0 induction, active = 140 or more
experimental.conditions: concentration: 10 µM; 24 h
Provide the recorded H1.0 immunofluorescence intensity for the entries that follow.
Answer field: number only, no words.

## Input I'm curious: which H1.0 immunofluorescence intensity was measured for CCNC(=O)N1CCN(CCCC(c2ccc(F)cc2)c2ccc(F)cc2)CC1.Cl [Amperozide hydrochloride] tested on HCC1569?;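 note: TDF is a line of transformed human dermal fibroblasts of mesenchymal origin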
## Output 99

## Input Query H1.0 immunofluorescence intensity on HCC1569 for O=C(C=Cc1ccc(O)cc1)c1ccc(O)cc1O
## Output 100

## Input Could you share what H1.0 immunofluorescence intensity was measured for Cl.NC12CC3CC(CC(C3)C1)C2 [Amantadine hydrochloride] , tested on HCC1569?;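 note: TDF is a line of transformed human dermal fibroblasts of mesenchymal origin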
## Output 98.4
